- Method description: late stage P. falciparum gametocyte viability inhibitors, primary screen, ATP luminescence, HTS (AID 743093);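 also: 0% = DMSO wells and 100% = medium only without gametocytes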
- Measurement context: P. falciparum stage V gametocytes, 24 h, at 10.9 µM, active compounds read high
Screen size: about 150,000 compounds; about 100 (0.067%) were called active. Shown is part of a subset that was picked to be rich in actives.
Kindly supply the reported inhibition values for the records listed here.
Give bare numbers, in %.

Below are worked cases with known answers.
CC1CN(c2nc(Nc3ccccc3)nc(N)c2[N+](=O)[O-])CC(C)O1 (stereo not drawn) | -1.38
CCN(CC)S(=O)(=O)c1ccc(NC(=O)c2cnc(C)cn2)cc1 | -1.77
CC(=O)Nc1ccc(Oc2ccc3c(c2)C(=O)NC3=O)cc1 | 10.6
Cc1ccc(C)c(SCc2nc3sc(C(=O)O)c(C)c3c(=O)[nH]2)c1 | 8.97

Each compound below has a reported value. Please supply its inhibition.
1. O=C(CCCCO)c1ccc(O)c(Cl)c1
2. O=C1N[C@@H](Cc2ccccc2)C(=O)N2[C@H]1C[C@]1(Br)c3ccccc3N(S(=O)(=O)c3ccccc3)[C@H]21

[-2.03, 12.6]

Respectfully, I request inhibition for each entry included below.
1. CCC(C(=O)NCCC(C)C)N(Cc1ccccc1Cl)C(=O)c1snc(C(N)=O)c1N (stereo not drawn)
2. COc1ccc(CCNC(=O)Cc2ccc(C)cc2)cc1OC

1: -26.1; 2: -9.83
